# Tested on: 299254-011-R-J1-PDC complex spheroid viability
# Method Summary: Anticancer human tumor 299254-011-R-J1-PDC patient-derived melanoma cell line growth inhibition [POLQ]
# Experimental Conditions: second compound 0.1 µM; first compound 1 µM; active compounds read low
Under this convention, t denotes viability, T/C strictly below 90% and f denotes viability, T/C at or above 90%.

COc1cc2cc(C(=O)CCC(=O)O)sc2cc1OC + COC1C(OC(N)=O)C(O)C(Oc2ccc3c(O)c(NC(=O)c4ccc(O)c(CC=C(C)C)c4)c(=O)oc3c2C)OC1(C)C	f
COc1cccc(OCCCN)c1-c1cc(Nc2cnc(C#N)cn2)n[nH]1 + Cc1cccc(N(C)C(=O)C2C(O)CCN2c2nc(C)cc(C(F)(F)F)c2C#N)c1	t
COc1cccc(OCCCN)c1-c1cc(Nc2cnc(C#N)cn2)n[nH]1 + Nc1ccc(C#CCN(C(=O)Cc2ncc(C(F)(F)F)cc2C(F)(F)F)c2ccc(F)cc2)nn1	t
CCc1c2c(nc3ccc(O)cc13)-c1cc3c(c(=O)n1C2)COC(=O)[C@]3(O)CC + Nc1ccc(C#CCN(C(=O)Cc2ncc(C(F)(F)F)cc2C(F)(F)F)c2ccc(F)cc2)nn1	t
COc1cc(C2c3cc4c(cc3C(OC3OC5COC(C)OC5C(O)C3O)C3COC(=O)C23)OCO4)cc(OC)c1O (stereo unspecified) + Cc1cccc(N(C)C(=O)C2C(O)CCN2c2nc(C)cc(C(F)(F)F)c2C#N)c1	t
CC1COCCN1c1cc(-c2ccnn2C)c2ccnc(-c3ccn[nH]3)c2n1 (stereo unspecified) + Cc1cccc(N(C)C(=O)C2C(O)CCN2c2nc(C)cc(C(F)(F)F)c2C#N)c1	t
C=CC(=O)N1CCN(c2nc(=O)n(-c3c(C)ccnc3C(C)C)c3nc(-c4c(O)cccc4F)c(F)cc23)C(C)C1 (stereo unspecified) + Cc1cccc(N(C)C(=O)C2C(O)CCN2c2nc(C)cc(C(F)(F)F)c2C#N)c1	t
CCc1cc2c(N3CCc4c(cc(Cn5ccnc5)cc4-c4cn(C)nc4C(F)(F)F)C3=O)cc(C)nc2c(OC)n1 + COC1C(OC(N)=O)C(O)C(Oc2ccc3c(O)c(NC(=O)c4ccc(O)c(CC=C(C)C)c4)c(=O)oc3c2C)OC1(C)C	f
COc1cccc2c1C(=O)c1c(O)c3c(c(O)c1C2=O)CC(O)(C(=O)CO)CC3OC1CC(N)C(O)C(C)O1 (stereo unspecified) + Cc1cccc(N(C)C(=O)C2C(O)CCN2c2nc(C)cc(C(F)(F)F)c2C#N)c1	t
CNCc1ccc(-c2[nH]c3cc(F)cc4c3c2CCNC4=O)cc1 + Nc1ccc(C#CCN(C(=O)Cc2ncc(C(F)(F)F)cc2C(F)(F)F)c2ccc(F)cc2)nn1	f
C=CCn1c(=O)c2cnc(Nc3ccc(N4CCN(C)CC4)cc3)nc2n1-c1cccc(C(C)(C)O)n1 + Cc1cccc(N(C)C(=O)C2C(O)CCN2c2nc(C)cc(C(F)(F)F)c2C#N)c1	t
CC1COCCN1c1cc(C2(O)CC3CCC(C2)O3)c2cnn(-c3ccn[nH]3)c2n1 (stereo unspecified) + COC1C(OC(N)=O)C(O)C(Oc2ccc3c(O)c(NC(=O)c4ccc(O)c(CC=C(C)C)c4)c(=O)oc3c2C)OC1(C)C	t
C=CC(=O)N1CCN(c2nc(=O)n(-c3c(C)ccnc3C(C)C)c3nc(-c4c(O)cccc4F)c(F)cc23)C(C)C1 (stereo unspecified) + COC1C(OC(N)=O)C(O)C(Oc2ccc3c(O)c(NC(=O)c4ccc(O)c(CC=C(C)C)c4)c(=O)oc3c2C)OC1(C)C	t
CCc1cc2c(N3CCc4c(cc(Cn5ccnc5)cc4-c4cn(C)nc4C(F)(F)F)C3=O)cc(C)nc2c(OC)n1 + Cc1cccc(N(C)C(=O)C2C(O)CCN2c2nc(C)cc(C(F)(F)F)c2C#N)c1	f
CC1COCCN1c1cc(C2(S(C)(=N)=O)CC2)nc(-c2ccnc3[nH]ccc23)n1 (stereo unspecified) + Cc1cccc(N(C)C(=O)C2C(O)CCN2c2nc(C)cc(C(F)(F)F)c2C#N)c1	t
O=C(c1cc(Cc2n[nH]c(=O)c3ccccc23)ccc1F)N1CCN(C(=O)C2CC2)CC1 + COC1C(OC(N)=O)C(O)C(Oc2ccc3c(O)c(NC(=O)c4ccc(O)c(CC=C(C)C)c4)c(=O)oc3c2C)OC1(C)C	f
CCc1cc2c(N3CCc4c(cc(Cn5ccnc5)cc4-c4cn(C)nc4C(F)(F)F)C3=O)ccnc2c(OC)n1 + COC1C(OC(N)=O)C(O)C(Oc2ccc3c(O)c(NC(=O)c4ccc(O)c(CC=C(C)C)c4)c(=O)oc3c2C)OC1(C)C	t
O=C(Nc1ccc(O)c(NS(=O)(=O)c2ccc(F)cc2)c1)c1ccc(-c2ccccc2)cc1 + COC1C(OC(N)=O)C(O)C(Oc2ccc3c(O)c(NC(=O)c4ccc(O)c(CC=C(C)C)c4)c(=O)oc3c2C)OC1(C)C	f
CC1COCCN1c1cc(C2(O)CC3CCC(C2)O3)c2cnn(-c3ccn[nH]3)c2n1 (stereo unspecified) + Cc1cccc(N(C)C(=O)C2C(O)CCN2c2nc(C)cc(C(F)(F)F)c2C#N)c1	t
COc1cc2cc(C(=O)CCC(=O)O)sc2cc1OC + Nc1ccc(C#CCN(C(=O)Cc2ncc(C(F)(F)F)cc2C(F)(F)F)c2ccc(F)cc2)nn1	f
C=CCn1c(=O)c2cnc(Nc3ccc(N4CCN(C)CC4)cc3)nc2n1-c1cccc(C(C)(C)O)n1 + Nc1ccc(C#CCN(C(=O)Cc2ncc(C(F)(F)F)cc2C(F)(F)F)c2ccc(F)cc2)nn1	t

###

Listed next: entries and their corresponding viability, T/C.
# System: 299254-011-R-J1-PDC complex spheroid viability
# Method Summary: Anticancer human tumor 299254-011-R-J1-PDC cell line growth inhibition [POLQ];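 note: spheroids exposed to drugs for one week before measurement; percent viability relative to DMSO vehicle control taken as 100%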
# Experimental Conditions: second compound 1 µM; first compound 10 µM; active compounds read low
Measurement Label: viability, T/C (%)

CC1COCCN1c1cc(C2(O)CC3CCC(C2)O3)c2cnn(-c3ccn[nH]3)c2n1 (configuration not stated) + Nc1ccc(C#CCN(C(=O)Cc2ncc(C(F)(F)F)cc2C(F)(F)F)c2ccc(F)cc2)nn1	12.9
O=C(c1cc(Cc2n[nH]c(=O)c3ccccc23)ccc1F)N1CCN(C(=O)C2CC2)CC1 + COC1C(OC(N)=O)C(O)C(Oc2ccc3c(O)c(NC(=O)c4ccc(O)c(CC=C(C)C)c4)c(=O)oc3c2C)OC1(C)C	98.2
COc1cc2cc(C(=O)CCC(=O)O)sc2cc1OC + Cc1cccc(N(C)C(=O)C2C(O)CCN2c2nc(C)cc(C(F)(F)F)c2C#N)c1	103
COc1cccc2c1C(=O)c1c(O)c3c(c(O)c1C2=O)CC(O)(C(=O)CO)CC3OC1CC(N)C(O)C(C)O1 (configuration not stated) + COC1C(OC(N)=O)C(O)C(Oc2ccc3c(O)c(NC(=O)c4ccc(O)c(CC=C(C)C)c4)c(=O)oc3c2C)OC1(C)C	0.78
COc1ccc([C@@H](O)c2cc(-c3ncnc4cc(N5CCOCC5)ccc34)c(F)cc2Cl)nn1 + Cc1cccc(N(C)C(=O)C2C(O)CCN2c2nc(C)cc(C(F)(F)F)c2C#N)c1	46
CCc1cc2c(N3CCc4c(cc(Cn5ccnc5)cc4-c4cn(C)nc4C(F)(F)F)C3=O)ccnc2c(OC)n1 + COC1C(OC(N)=O)C(O)C(Oc2ccc3c(O)c(NC(=O)c4ccc(O)c(CC=C(C)C)c4)c(=O)oc3c2C)OC1(C)C	84.7
C=CC(=O)N1CCN(c2nc(=O)n(-c3c(C)ccnc3C(C)C)c3nc(-c4c(O)cccc4F)c(F)cc23)C(C)C1 (configuration not stated) + Nc1ccc(C#CCN(C(=O)Cc2ncc(C(F)(F)F)cc2C(F)(F)F)c2ccc(F)cc2)nn1	79

###

# Tested on: 299254-011-R-J1-PDC complex spheroid viability
# Method Summary: Anticancer human tumor 299254-011-R-J1-PDC cell line growth inhibition [POLQ];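 note: spheroids exposed to drugs for one week before measurement; percent viability relative to DMSO vehicle control taken as 100%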
# Experimental Conditions: second compound 0.316 µM; first compound 3.16 µM; active compounds read low
# Procedure: Multicellular complex tumor spheroid response to Polymerase (POL) inhibitors (novobiocin, ART-558, RP6685) in combination with a variety of drugs and investigational agents in selected tumor cell lines The POL inhibitors (novobiocin, ART-558, and RP6685) were evaluated both individually and in combination with standard of care and investigational anticancer small molecules within a complex spheroid model of solid tumors. . […]
Listed next: entries and their corresponding viability, T/C.
Measurement Label: viability, T/C (%)

COc1ccc([C@@H](O)c2cc(-c3ncnc4cc(N5CCOCC5)ccc34)c(F)cc2Cl)nn1 + COC1C(OC(N)=O)C(O)C(Oc2ccc3c(O)c(NC(=O)c4ccc(O)c(CC=C(C)C)c4)c(=O)oc3c2C)OC1(C)C	86.7
O=C(Nc1ccc(O)c(NS(=O)(=O)c2ccc(F)cc2)c1)c1ccc(-c2ccccc2)cc1 + Nc1ccc(C#CCN(C(=O)Cc2ncc(C(F)(F)F)cc2C(F)(F)F)c2ccc(F)cc2)nn1	85.9
CC1COCCN1c1cc(C2(O)CC3CCC(C2)O3)c2cnn(-c3ccn[nH]3)c2n1 (stereo unspecified) + Cc1cccc(N(C)C(=O)C2C(O)CCN2c2nc(C)cc(C(F)(F)F)c2C#N)c1	18.6
CC(C)n1c(=O)n(C)c2cnc3cc(F)c(-c4ccc(OCCCN5CCCCC5)nc4)cc3c21 + Nc1ccc(C#CCN(C(=O)Cc2ncc(C(F)(F)F)cc2C(F)(F)F)c2ccc(F)cc2)nn1	97.3
CNCc1ccc(-c2[nH]c3cc(F)cc4c3c2CCNC4=O)cc1 + Cc1cccc(N(C)C(=O)C2C(O)CCN2c2nc(C)cc(C(F)(F)F)c2C#N)c1	130
CC1COCCN1c1cc(C2(O)CC3CCC(C2)O3)c2cnn(-c3ccn[nH]3)c2n1 (stereo unspecified) + Nc1ccc(C#CCN(C(=O)Cc2ncc(C(F)(F)F)cc2C(F)(F)F)c2ccc(F)cc2)nn1	18.5
CCc1cc2c(N3CCc4c(cc(Cn5ccnc5)cc4-c4cn(C)nc4C(F)(F)F)C3=O)ccnc2c(OC)n1 + Cc1cccc(N(C)C(=O)C2C(O)CCN2c2nc(C)cc(C(F)(F)F)c2C#N)c1	84.2
CCCS(=O)(=O)Nc1ccc(F)c(C(=O)c2c[nH]c3ncc(-c4ccc(Cl)cc4)cc23)c1F + Cc1cccc(N(C)C(=O)C2C(O)CCN2c2nc(C)cc(C(F)(F)F)c2C#N)c1	103
COc1cccc2c1C(=O)c1c(O)c3c(c(O)c1C2=O)CC(O)(C(=O)CO)CC3OC1CC(N)C(O)C(C)O1 (stereo unspecified) + Cc1cccc(N(C)C(=O)C2C(O)CCN2c2nc(C)cc(C(F)(F)F)c2C#N)c1	11.4
C#Cc1c(F)ccc2cc(O)cc(-c3ncc4c(N5CC6CCC(C5)N6)nc(OCC56CCCN5CC(F)C6)nc4c3F)c12 (stereo unspecified) + Cc1cccc(N(C)C(=O)C2C(O)CCN2c2nc(C)cc(C(F)(F)F)c2C#N)c1	114
O=c1[nH]cc(F)c(=O)[nH]1 + Nc1ccc(C#CCN(C(=O)Cc2ncc(C(F)(F)F)cc2C(F)(F)F)c2ccc(F)cc2)nn1	95.1
